All figures here come from patent US9926315B2.

# tested-on: human ΔF508-CFTR (Homo sapiens, UniProt P13569, DEL508-508)
# Construct: expressed in transfected cells
# Sequence (P13569 with tags, fused parts or gaps DEL508-508): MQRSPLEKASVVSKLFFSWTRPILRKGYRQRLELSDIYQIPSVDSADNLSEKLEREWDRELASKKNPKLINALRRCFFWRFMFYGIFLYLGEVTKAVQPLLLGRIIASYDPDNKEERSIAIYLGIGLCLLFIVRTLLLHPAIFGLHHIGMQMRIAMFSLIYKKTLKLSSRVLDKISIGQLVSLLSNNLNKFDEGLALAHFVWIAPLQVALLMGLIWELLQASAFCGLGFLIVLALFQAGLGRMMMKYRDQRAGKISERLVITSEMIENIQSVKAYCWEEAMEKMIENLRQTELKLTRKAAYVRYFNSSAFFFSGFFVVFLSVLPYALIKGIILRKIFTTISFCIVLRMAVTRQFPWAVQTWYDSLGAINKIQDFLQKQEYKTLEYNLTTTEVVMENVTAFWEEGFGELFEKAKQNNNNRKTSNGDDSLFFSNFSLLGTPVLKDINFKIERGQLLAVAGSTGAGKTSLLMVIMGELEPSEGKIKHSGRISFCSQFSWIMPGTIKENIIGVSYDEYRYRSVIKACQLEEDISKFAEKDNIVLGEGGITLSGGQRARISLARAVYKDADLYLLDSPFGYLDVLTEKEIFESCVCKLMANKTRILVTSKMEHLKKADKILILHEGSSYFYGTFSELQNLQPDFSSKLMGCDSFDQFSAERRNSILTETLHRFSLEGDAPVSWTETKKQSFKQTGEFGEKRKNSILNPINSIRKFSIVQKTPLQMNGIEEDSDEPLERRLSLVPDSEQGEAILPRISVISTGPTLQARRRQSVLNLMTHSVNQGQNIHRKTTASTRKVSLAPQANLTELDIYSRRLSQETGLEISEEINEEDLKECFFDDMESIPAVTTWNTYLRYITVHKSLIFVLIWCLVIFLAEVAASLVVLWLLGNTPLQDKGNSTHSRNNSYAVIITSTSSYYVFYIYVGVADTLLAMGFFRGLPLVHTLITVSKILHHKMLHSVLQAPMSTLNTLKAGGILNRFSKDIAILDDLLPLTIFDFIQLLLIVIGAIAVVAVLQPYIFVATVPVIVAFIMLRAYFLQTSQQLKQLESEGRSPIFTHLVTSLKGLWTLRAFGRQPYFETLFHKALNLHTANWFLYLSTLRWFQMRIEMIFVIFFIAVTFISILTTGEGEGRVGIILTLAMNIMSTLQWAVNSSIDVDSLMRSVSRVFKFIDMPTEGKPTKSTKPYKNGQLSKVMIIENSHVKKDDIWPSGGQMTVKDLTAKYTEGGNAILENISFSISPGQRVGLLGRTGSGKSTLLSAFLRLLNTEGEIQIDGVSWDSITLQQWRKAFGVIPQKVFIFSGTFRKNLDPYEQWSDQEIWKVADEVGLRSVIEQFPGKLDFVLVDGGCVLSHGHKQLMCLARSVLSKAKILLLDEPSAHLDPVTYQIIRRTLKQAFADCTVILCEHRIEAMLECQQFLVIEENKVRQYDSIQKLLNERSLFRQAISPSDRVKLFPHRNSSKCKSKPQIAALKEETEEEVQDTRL
# method-summary: CFTR-YFP High Throughput Assay (HTS YFP flux assay, corrector / potentiator protocols)
# Assay type: cell-based
# experimental-parameters: FRT cells stably expressing human ΔF508-CFTR and YFP-H148Q/I152L; normalized to positive control; read-out: Emax (% Efficacy, EMax normalized to the positive control)
property-label: Emax

Solved entries:
{"compound": "CCN(CC)S(=O)(=O)c1ccc2nnc(NCC3CCOCC3)n2c1 [Example 50]", "property-label": "Emax", "observed": "> 80%"}
{"compound": "CCN(CC)S(=O)(=O)c1ccc2nnc(N(C)Cc3ccccc3)n2c1 [Example 3]", "property-label": "Emax", "observed": "40 to 80%"}
{"compound": "O=S(=O)(c1ccccc1)c1ccc2nnc(NCC(O)C3CCCC3)n2c1 (stereo not drawn) [Example 73]", "property-label": "Emax", "observed": "> 80%"}

The compound listed as CCN(CC)S(=O)(=O)c1ccc2nnc(NCCC(C)(C)C)n2c1 [Example 45] has a reported Emax of > 80%

The compound listed as CCN(CC)S(=O)(=O)c1ccc2nnc(NCC(C)(C)OC)n2c1 [Example 31] has a reported Emax of 40 to 80%

The compound listed as CCN(CC)S(=O)(=O)c1ccc2nnc(NCc3ccc(C)cc3)n2c1 [Example 9] has a reported Emax of > 80%
